Cited source: PubChem BioAssay (NCATS)

assay: Quantitative high throughput screen for delayed death inhibitors of the malarial parasite plastid, 96 hour incubation (AID 488745); conditions: Plasmodium falciparum growth; series mostly up to 28.7 µM; note: nearly all actives have a fitted effect of over 70% in size
Records with an inconclusive call do not appear. Activity calls are given as the source filed them. Calls come from the whole dose curve; as a rule, active = well fitted inhibition curve with a large enough effect; inconclusive = small, poorly fitted or top-dose-only effect, or effect the other way; inactive = no such curve, though single readings can be large or run the other way.
Outcome codes: yes (1) (active), no (0) (inactive)

COMPOUND	ANSWER_LABEL
C[C@H]1C2Cc3ccc(O)cc3[C@]1(C)CCN2CC1CC1	no (0)
CCCC[N+]1(C)C2CC(OC(=O)C(CO)c3ccccc3)CC1C1OC12 (stereo unspecified)	no (0)
N#CC(=Cc1ccc(O)c(O)c1)C(N)=S	no (0)
CCCN1CCC[C@@H](c2cccc(C#N)c2)C1	no (0)
C[C@@H]1O[C@@H](O[C@H]2C[C@@H](O)[C@]3(CO)[C@H]4[C@H](O)C[C@]5(C)[C@@H]([C@@H]6COC(=O)C6)CC[C@]5(O)[C@@H]4CC[C@]3(O)C2)[C@H](O)[C@H](O)[C@H]1O	no (0)
CC(=O)O[C@H]1C[C@@H]2CCC3C(CC[C@@]4(C)[C@H]3C[C@H]([N+]3(C)CCCCC3)[C@@H]4OC(C)=O)[C@@]2(C)C[C@@H]1[N+]1(C)CCCCC1 (stereo partly specified)	yes (1)
CCCN1CCc2cccc3c2C1Cc1ccc(O)c(O)c1-3 (stereo unspecified)	yes (1)
C[C@H]1OC[C@@H](C[N+](C)(C)C)O1	no (0)
C#CCN(C)C(C)Cc1ccccc1 (stereo unspecified)	no (0)
CCCN1CCCC(c2cccc(O)c2)C1 (stereo unspecified)	no (0)
COc1ccc2c3c1O[C@H]1C(=O)CC[C@@]4(O)C(C2)N(CC2CC2)CCC314 (stereo partly specified)	no (0)
C[C@]12CC[C@H]3[C@@H](CCC4C[C@H](O)CC[C@@]43C)[C@@H]1CC[C@@H]2O (stereo partly specified)	no (0)
CCc1c(C(=O)OC)ncc2[nH]c3cc(OC)c(OC)cc3c12	no (0)
S=C(S)N1CCCC1	yes (1)
COc1cc(C[C@@H](C)N)c(OC)cc1I	no (0)
CCCCN1C2CCC1CC(OC(c1ccc(F)cc1)c1ccc(F)cc1)C2 (stereo unspecified)	yes (1)

----------
assay: S16 Schwann cell PMP22 intronic element firefly luciferase assay (AID 624032); conditions: S16 rat Schwann cells, PMP22 element FLuc, 24 h; series mostly up to 57.5 µM; note: nearly all actives have a fitted effect of over 30% in size
Inconclusive results are not listed. Activity calls are given as the source filed them. The call rests on the fitted dose curve; in most records, active means well fitted inhibition curve with a large enough effect; inconclusive means small, poorly fitted or top-dose-only effect; inactive means no such curve, though single readings can be large or run the other way.
Outcomes: True = active, False = inactive

COMPOUND	ANSWER_LABEL
CCN(CC)C(=O)N[C@@H]1C[C@@H]2c3cccc4[nH]cc(c34)C[C@H]2N(C)C1	False
O=C1C=C2C=CC3C[C@@]2(O1)C1CCCCN31 (stereo partly drawn)	True
COc1cc(N)c(Cl)cc1C(=O)N[C@@H]1CN2CCC1CC2	False
C[S+](CC[C@H](N)C(=O)O)C[C@H]1O[C@@H](n2cnc3c(N)ncnc32)[C@H](O)[C@@H]1O (stereo partly drawn)	False
CC[C@]1(c2cccc(O)c2)CCCCN(C)C1	False
C=CC1CN2CCC1CC2C(OC(=O)OCC)c1ccnc2ccc(OC)cc12 (stereo not drawn)	False
C[N+]1(C)[C@@H]2CC[C@H]1CC(OC(=O)[C@@H](CO)c1ccccc1)C2 (stereo partly drawn)	False
CNC[C@H](O)c1ccc(O)cc1	False
CO[C@@H](COC(N)=O)C1=C(N2CC2)C(=O)C(C)=C(N2CC2)C1=O	True
CC(=O)O[C@H]1CC[C@@]2(C)C(=CC[C@@H]3[C@H]2CC[C@]2(C)C(=O)CC[C@H]32)C1	False
C[C@]12CC[C@H]3[C@@H](CCC4=CC(=O)CC[C@@]43C)[C@@H]1CC[C@@H]2O	True
CC1=C2[C@@H]3OC(=O)[C@@H](C)[C@@H]3CC[C@]2(C)C=CC1=O	False
CC(C)CC(CN)CC(=O)O (stereo not drawn)	False
CC(=O)OCC(=O)[C@@H]1CC[C@H]2[C@H]3CC[C@H]4C[C@@H](O)CC[C@]4(C)[C@@H]3C(=O)C[C@@]12C	False
COc1cc2c(cc1OC)[C@@]13CCN4CC5=CCOC6CC(=O)N2C1[C@H]6[C@@H]5C[C@@H]43 (stereo partly drawn)	False
CN[C@@H](C)[C@H]1CC[C@@H](N)[C@@H](O[C@@H]2[C@@H](O)[C@@H](O[C@H]3OC[C@@](C)(O)[C@@H](NC)[C@@H]3O)[C@H](N)C[C@@H]2N)O1 (tested in a mixture with another compound)	False
CCNC[C@H](O)c1cccc(O)c1	False
CC(C)(O)C1C2OC(=O)C1[C@]1(O)C[C@H]3O[C@]34C(=O)O[C@H]2[C@]14C (stereo partly drawn) (tested in a mixture with another compound)	False
CC(C)C[C@H]1C(=O)N2CCCC2[C@]2(O)O[C@](NC(=O)[C@@H]3C=C4c5cccc6[nH]c(Br)c(c56)C[C@H]4N(C)C3)(C(C)C)C(=O)N12 (stereo partly drawn)	True
ClC1=C(Cl)C2(Cl)C3C4CC(C5OC45)C3C1(Cl)C2(Cl)Cl (stereo not drawn)	False
CCN[C@]1(c2cccs2)CCCCC1=O	False
CC(C)c1c(CN(C)[C@@H](C)Cc2ccccc2)n(C)n(-c2ccccc2)c1=O	False
CC([C@H](O)c1ccccc1)N(C)C (stereo partly drawn)	False
C[C@H]1CN(C2CCC(C#N)(c3ccc(F)cc3)CC2)CC[C@@]1(C(=O)O)c1ccccc1 (stereo partly drawn)	False
[Hg+][c]1ccccc1	True
COc1cc(CNC(=O)CCCC/C=C/C(C)C)ccc1O	True
C[C@@]12CCC(=O)C=C1C=C[C@H]1[C@H]3CC[C@](O)(CCC(=O)O)[C@]3(C)CC[C@@H]12	False
C[C@H](N)[C@@H](O)c1ccccc1	False
